assay: S. cerevisiae RM11-1a growth modifiers, primary screen, strain RM11-1a, OD600, basal, 24 h (AID 1177); conditions: OD600, 24 h, higher = more signal, called active from +8 up or from −8 down;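 further: cultures grown under basal conditions with no added stressor; test concentration not given here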
Give fulfilled when the value for z-score is at least 0.7. Give not fulfilled when it is less.

| compound | categoryLabel |
| --- | --- |
| CCC(CC)C(O)C1C=CC2C(=O)N(C)C(=O)C2N1Nc1ccccc1 (centres undefined) | not fulfilled |
| Cc1ccc(C(C)CC(O)C2C=CC3C(=O)N(C)C(=O)C3N2NC(=O)OC(C)(C)C)o1 (centres undefined) | not fulfilled |
| CN1C(=O)C2C=CC(C(O)c3ccccc3)N(Nc3ccccc3)C2C1=O (centres undefined) | not fulfilled |
| COCCOC(=O)N1C(=O)[C@@]2(c3ccccc31)[C@H](c1ccccc1OCCO)N1[C@H](c3ccccc3)[C@H](c3ccccc3)OC(=O)[C@H]1[C@@H]2C(=O)Nc1nc2ccccc2s1 | fulfilled |
| COC(=O)C(CC#Cc1ccc2c(c1)[C@]1(C(=O)N2)[C@H](c2ccc(O)cc2)N2[C@H](c3ccccc3)[C@H](c3ccccc3)OC(=O)[C@H]2[C@@H]1C(=O)Nc1nc2ccccc2s1)C(=O)OC | not fulfilled |
| CN1C(=O)C2C=CC(C(O)C3CCCCC3)N(Nc3ccc([N+](=O)[O-])cc3[N+](=O)[O-])C2C1=O (centres undefined) | not fulfilled |
| COCCOC(=O)N1C(=O)[C@@]2(c3cc(C#CC4=CCCCC4)ccc31)[C@H](C(N)=O)[C@H]1C(=O)O[C@H](c3ccccc3)[C@H](c3ccccc3)N1[C@@H]2c1ccc(OCCO)cc1 | fulfilled |
| CCCC[C@@H]1C[C@H]1[C@@H](NC(=O)c1ccco1)c1ccc(C(=O)OC)cc1 | not fulfilled |
| CC1(C)[C@@H]2CC(C(O)C3C=CC4C(=O)N(c5ccccc5)C(=O)C4N3Nc3ccccc3)=C[C@H]1C2 (some centres undefined) | not fulfilled |
| C=CCC(OC(C)=O)[C@@H]1[C@@H](N(Cc2cccc3ccccc23)C(=O)c2ccc(-c3ccccc3)cc2)c2cc(OCCCO)ccc2N1C(=O)Cc1ccc(OC)cc1 (some centres undefined) | not fulfilled |
| CO[C@H]1O[C@H](CO)[C@@H](OC(=O)Nc2ccc(Br)cc2)[C@H](OC(=O)c2cc3ccccc3[nH]2)[C@H]1OC(=O)c1cc2ccccc2[nH]1 | not fulfilled |
| CS(=O)(=O)CCOC(=O)C1=CC(CCCO)=CC(c2ccc(CN3CCCC3)cc2)N(Cc2cc3c(cc2Br)OCO3)C=C1C(=O)OCCS(C)(=O)=O (centres undefined) | not fulfilled |
| CC(C)(C)OC(=O)CC[C@]1(C(=O)NCC(O)CO)COC(c2ccc(OCCCO)cc2)=N1 (some centres undefined) | fulfilled |

Cited source: PubChem BioAssay
